# Target or test system: human TLR9 (Homo sapiens)
# Sequence (Q9NR96 26-1032): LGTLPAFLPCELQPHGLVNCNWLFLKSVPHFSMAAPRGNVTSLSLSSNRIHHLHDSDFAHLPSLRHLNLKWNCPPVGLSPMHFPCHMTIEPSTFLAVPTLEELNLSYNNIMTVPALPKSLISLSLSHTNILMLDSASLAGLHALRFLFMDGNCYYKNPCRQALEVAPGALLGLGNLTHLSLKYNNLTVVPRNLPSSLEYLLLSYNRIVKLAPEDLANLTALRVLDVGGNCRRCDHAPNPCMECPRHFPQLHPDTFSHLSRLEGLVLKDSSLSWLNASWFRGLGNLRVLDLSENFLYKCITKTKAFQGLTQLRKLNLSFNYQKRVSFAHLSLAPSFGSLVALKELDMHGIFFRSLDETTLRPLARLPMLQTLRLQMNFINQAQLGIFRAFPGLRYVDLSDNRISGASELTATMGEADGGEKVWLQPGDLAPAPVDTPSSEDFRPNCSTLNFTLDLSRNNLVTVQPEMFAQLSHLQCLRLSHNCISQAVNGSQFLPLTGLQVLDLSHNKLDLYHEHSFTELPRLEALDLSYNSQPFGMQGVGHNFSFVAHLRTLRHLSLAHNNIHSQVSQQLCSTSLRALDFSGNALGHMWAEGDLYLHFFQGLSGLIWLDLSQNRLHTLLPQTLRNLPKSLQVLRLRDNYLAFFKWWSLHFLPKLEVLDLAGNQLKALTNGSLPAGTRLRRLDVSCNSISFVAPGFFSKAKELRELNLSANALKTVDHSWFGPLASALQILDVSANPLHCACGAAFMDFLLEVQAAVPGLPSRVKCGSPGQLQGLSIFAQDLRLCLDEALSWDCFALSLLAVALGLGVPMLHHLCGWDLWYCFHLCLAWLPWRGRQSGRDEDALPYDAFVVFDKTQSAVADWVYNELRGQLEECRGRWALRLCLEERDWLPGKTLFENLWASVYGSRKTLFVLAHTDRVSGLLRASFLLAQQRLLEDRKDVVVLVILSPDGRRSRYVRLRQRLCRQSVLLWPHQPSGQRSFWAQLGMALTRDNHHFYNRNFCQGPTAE
# Protocol summary: TLR9 inhibition reporter assay (HEK-Blue cells, SEAP reporter, ODN2006 stimulation)
# Conditions: HEK-Blue cells overexpressing human TLR9, SEAP reporter, ODN2006 5 nM
Value kind: IC50 (µM)

A = Cc1c(-c2[nH]c3ccc(CC4CCCN4CCS(C)(=O)=O)cc3c2C(C)C)cn2cnnc2c1C (stereo not drawn) [Example 428]
B = CNCC(=O)N1CC(c2ccc3[nH]c(-c4cc(C)c5ncnn5c4)c(C(C)C)c3c2)C1 [Example 267]
C = CNCCN1CCCC(c2ccc3[nH]c(-c4ccnc(C)c4)c(C(C)C)c3c2)C1 (stereo not drawn) [Example 256]
D = Cc1c(-c2[nH]c3ccc(C4CN(CCCC(F)(F)F)C4)cc3c2C(C)C)cn2cnnc2c1C [Example 554]
Data request: Order the 4 molecules from highest to lowest IC50. Please list the labels in the order you were asked to rank them.
Data returned: A, D, B, C
(A: 16.2 µM, D: 5.2 µM, B: 2 µM, C: 0.611 µM)

P = COc1cc(-c2[nH]c3ccc(C4CCC(NC(C)=O)CC4)cc3c2C(C)C)cn2ncnc12 (single isomer, unassigned) [Example 115]
Q = CNC1CCC(c2ccc3[nH]c(-c4cc(C)c5ncnn5c4)c(C(C)C)c3c2)CC1 (single isomer, unassigned) [Example 58]
Data request: // compare: P vs Q , metric IC50, want the smaller Bench note: the answer is the label of the chosen record.
Data returned: Q

a = CNC1CCC(c2ccc3[nH]c(-c4cn5ncnc5c(C)c4C)c(C(C)C)c3c2)CC1 (stereo not drawn) [Example 89]
b = CNC(=O)CNC1CCC(c2ccc3[nH]c(-c4cc(C)c5ncnn5c4)c(C(C)C)c3c2)CC1 (single isomer, unassigned) [Example 163]
c = Cc1cc(-c2[nH]c3ccc(C4CCC(NC(=O)CN(C)C)CC4)cc3c2C(C)C)cc(C)n1 (stereo not drawn) [Example 120]
Data request: Your job: order these 3 records by IC50, ascending. Please list the labels in the order you were asked to rank them.
Data returned: c, a, b
(c: 0.323 µM, a: 1.32 µM, b: 2.24 µM)

P = Cc1cc(-c2[nH]c3ccc(C4CCC(N(C)CC(=O)N(C)C)CC4)cc3c2C(C)C)cn2ncnc12 (single isomer, unassigned) [Example 177]
Q = CNCC(=O)N1CCOC(c2ccc3[nH]c(-c4cc(C)c5ncnn5c4)c(C(C)C)c3c2)C1 (stereo not drawn) [Example 337]
Data request: # argmax over IC50 for candidates P and Q Bench note: the answer is the label of the chosen record.
Data returned: P
(P: 7.02 µM, Q: 3.28 µM)

a = CN[C@H](C)C(=O)N1CCCC(c2ccc3[nH]c(-c4cc(C)nc(C)c4)c(C(C)C)c3c2)C1 (stereo partly drawn) [Example 221]
b = Cc1cc(-c2[nH]c3ccc(C4CCCCC4)cc3c2C(C)C)cc(C)n1 [Example 469]
Data request: # argmax over IC50 for candidates a and b Bench note: the answer is the label of the chosen record.
Data returned: b

These measurements were taken from patent US11878975B2.
